The values you see were collected from PubChem BioAssay.

Molecular target: Calmodulin-1 (Homo sapiens) (UniProt P0DP23)
Experiment: small molecules binding Ca-loaded calmodulin-1 – biochemical, small-molecule microarray, Cy5-labelled CALM1, plus calcium, artefact control for SMM control-protein annotation, profiling panel (AID 1112);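 note: score merges spot fluorescence with signal to noise from triplicate slides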
Conditions: Cy5-CALM1 binding fluorescence, higher = more signal
# if value of composite z-score reaches 0.08, tag condition met; if it stays below, tag condition not met

compound=C[N+](C)(C)CCCC[C@@H]1NC(=O)[C@@H]2C[C@H](C(=O)NCc3ccc(F)cc3)[C@H](c3ccc(O)cc3)N2C1=O assigned_label="condition not met"
compound=CC(C)=C1C(=O)C(c2ccccc2)=C2CN3C(=O)N(CCc4ccccc4)C(=O)[C@]3(C)[C@H]21 assigned_label="condition met"
compound="C=CCC(OC(C)=O)[C@@H]1[C@@H](N(Cc2cc3ccccc3o2)C(=O)Cc2ccc(OC)cc2)c2cc(OCCCO)ccc2N1C(=O)c1ccc2ccccc2n1 (stereo partly specified)" assigned_label="condition not met"
compound="COc1ccc(C(O)C2C=CC3C(=O)NC(=O)C3N2Nc2ccc(Cl)cc2Cl)c2ccccc12 (stereo unspecified)" assigned_label="condition met"
compound="COc1ccc(C(O)C2C=CC3C(=O)N(c4ccccc4)C(=O)C3N2Nc2ccc(C#N)cc2)cc1OCc1ccccc1 (stereo unspecified)" assigned_label="condition met"
compound="O=C(NCC(O)CO)[C@@]1(CCS(=O)(=O)c2ccccc2)N=C(c2ccc(OCCCO)cc2)O[C@H]1c1ccccc1 (stereo partly specified)" assigned_label="condition met"
